Biological target: T1, recombinant human IL-23 (human, UniProt Q9NPF7 20-189; P29460 23-328)
T1 construct: also called hIL-23
T1 sequence 1: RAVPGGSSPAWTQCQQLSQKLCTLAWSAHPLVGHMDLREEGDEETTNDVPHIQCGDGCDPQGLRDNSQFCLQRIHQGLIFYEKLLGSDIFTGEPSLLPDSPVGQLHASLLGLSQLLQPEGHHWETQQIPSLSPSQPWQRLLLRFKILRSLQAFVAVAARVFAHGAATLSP
T1 sequence 2: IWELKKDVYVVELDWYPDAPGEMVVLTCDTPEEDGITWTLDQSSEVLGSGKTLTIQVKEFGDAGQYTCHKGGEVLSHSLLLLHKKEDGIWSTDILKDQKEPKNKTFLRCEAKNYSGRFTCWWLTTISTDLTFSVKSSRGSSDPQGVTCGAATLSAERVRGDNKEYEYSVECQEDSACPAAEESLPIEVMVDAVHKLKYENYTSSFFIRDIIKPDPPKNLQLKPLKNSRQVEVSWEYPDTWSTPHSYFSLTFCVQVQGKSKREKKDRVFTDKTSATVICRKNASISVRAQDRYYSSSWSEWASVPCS
Test: SPR (Biacore T100), tissue culture supernatant antibody captured on anti-human IgG, IL-23 analyte
pKd: −log10 of the molar value.
Known pKd of a selection of binders

binder	pKd
A8M4 (antibody, V domains shown) VH: QVQLVQSGAEVKKPGSSVKVSCKASGYTFTSYGITWVRQAPGQGLEWMGEDYPRSGNTYYNEKFKGRVTITADKSTSTAYMELSSLRSEDTAVYYCARAEFISTVVAPYYYALDYWGQGTLVTVSS VL: DIVMTQSPDSLAVSLGERATINCKASKKVTIFGSTSALHWYQQKPGQPPKLIYNGAKPESGVPDRFSGSGSGTDFTLTISSLQAEDVAVYYCLQNKEVPYTFGGGTKVEIK	10.34
A6M4 (antibody, human IgG1, kappa, V domains shown, Full length chains) VH: QVQLVQSGAEVKKPGSSVKVSCKASGYTFTSYGITWVRQAPGQGLEWMGENYPRSGNTYYNEKFKGRVTITADKSTSTAYMELSSLRSEDTAVYYCARVEFISTVVAPYYYALDYWGQGTLVTVSS VL: DIVMTQSPDSLAVSLGERATINCKASKKVTIFGSTSALHWYQQKPGQPPKLIYNGAKPESGVPDRFSGSGSGTDFTLTISSLQAEDVAVYYCLQNKEVPYTFGGGTKVEIKR	10.33
A9M4 (antibody, V domains shown) VH: QVQLVQSGAEVKKPGSSVKVSCKASGYTFTSYGITWVRQAPGQGLEWMGEDYPRSGNTYYNEKFKGRVTITADKSTSTAYMELSSLRSEDTAVYYCARVEFISTVVAPYYYALDYWGQGTLVTVSS VL: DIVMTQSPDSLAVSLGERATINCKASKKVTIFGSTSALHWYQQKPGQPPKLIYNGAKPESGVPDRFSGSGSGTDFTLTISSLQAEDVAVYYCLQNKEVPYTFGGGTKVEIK	10.34
A12.5M3 (antibody, V domains shown) VH: QVQLVQSGAEVKKPGSSVKVSCKASGYTFASYGITWVRQAPGQGLEWMGENYPRSGNTYYNEKFKGRVTITADKSTSTAYMELSSLRSEDTAVYYCARVEFISTVVAPYYYALDYWGQGTLVTVSS VL: DIVMTQSPDSLAVSLGERATINCKASKKVTIFGSTSALHWYQQKPGQPPKLIYNGAKLESGVPDRFSGSGSGTDFTLTISSLQAEDVAVYYCLQNKEVPYTFGGGTKVEIK	10.20
A11.5M3 (antibody, V domains shown) VH: QVQLVQSGAEVKKPGSSVKVSCKASGYTFASYGITWVRQAPGQGLEWMGENYPRSGNTYYNEKFKGRVTITADKSTSTAYMELSSLRSEDTAVYYCARAEFISTVVAPYYYALDYWGQGTLVTVSS VL: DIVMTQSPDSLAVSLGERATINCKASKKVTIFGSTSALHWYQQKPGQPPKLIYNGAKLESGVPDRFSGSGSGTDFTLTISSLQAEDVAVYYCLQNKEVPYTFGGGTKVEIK	10.22
A11.5M4 (antibody, V domains shown) VH: QVQLVQSGAEVKKPGSSVKVSCKASGYTFASYGITWVRQAPGQGLEWMGENYPRSGNTYYNEKFKGRVTITADKSTSTAYMELSSLRSEDTAVYYCARAEFISTVVAPYYYALDYWGQGTLVTVSS VL: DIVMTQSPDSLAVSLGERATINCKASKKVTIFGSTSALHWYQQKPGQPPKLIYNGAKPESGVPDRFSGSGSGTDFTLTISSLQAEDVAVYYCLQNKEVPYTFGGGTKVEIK	10.18
